test system: PPARg:RXRa 90nM:30nM, anti-RXR (NR concentration 90 nM, RXRa partner concentration 30 nM); experiment: PBM binding z-score (relative to random genomic background probes); higher = stronger binding; sequences stand for … in GC…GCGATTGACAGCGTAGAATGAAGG
Note to self: values exactly at 2 are condition met. So PBM binding z-score at or above 2 is condition met, below is condition not met.

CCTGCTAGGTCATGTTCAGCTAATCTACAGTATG    condition not met
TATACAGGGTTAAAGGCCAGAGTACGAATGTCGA    condition met
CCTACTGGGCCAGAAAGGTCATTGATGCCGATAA    condition met
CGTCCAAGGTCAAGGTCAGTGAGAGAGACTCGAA    condition met

Lab note: next sequence to report on.
[in] Does the reported PBM binding z-score for "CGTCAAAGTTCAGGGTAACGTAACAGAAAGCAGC" fall at or above the 2 mark?
[out] condition met

====

test system: PPARg:RXRa 30nM:10nM, anti-RXR (NR concentration 30 nM, RXRa partner concentration 10 nM); experiment: PBM binding z-score (relative to random genomic background probes); higher = stronger binding; sequences stand for … in GC…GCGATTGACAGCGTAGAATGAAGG
// map PBM binding z-score to label using low end: < 0.9; middle: ≥ 0.9 and < 3; high end: ≥ 3

Examples with answers:
GCTCGCAGGCCATTTGGGTCACTCAATGACGGGC    low end
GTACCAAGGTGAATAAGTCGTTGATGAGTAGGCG    low end
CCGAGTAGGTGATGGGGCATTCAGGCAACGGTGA    middle
CGAACTAGGACAGAACAGGACAGTGAAGGATGAT    low end
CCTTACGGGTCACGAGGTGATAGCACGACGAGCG    high end
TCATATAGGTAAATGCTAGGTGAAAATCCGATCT    high end
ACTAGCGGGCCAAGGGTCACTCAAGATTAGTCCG    high end
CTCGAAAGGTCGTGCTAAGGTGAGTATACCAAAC    middle

[in] Lab note: which band did "TCTTGTAGATCAATAGAGGTTAAGCAAGTGCGCT" land in?
[out] middle

[in] Lab note: which band did "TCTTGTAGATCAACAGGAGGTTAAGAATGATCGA" land in?
[out] middle

[in] Lab note: which band did "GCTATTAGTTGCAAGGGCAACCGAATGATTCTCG" land in?
[out] low end

====

tested on: PXR:RXRa (NR concentration 270 nM, RXRa partner concentration 90 nM); test: PBM binding z-score (relative to random genomic background probes); higher = stronger binding; sequences stand for … in GC…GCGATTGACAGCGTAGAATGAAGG
measure.name: PBM binding z-score
Output: the number by itself.

The following sequences have reported results that may help.
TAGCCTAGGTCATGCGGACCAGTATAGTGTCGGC    1.31
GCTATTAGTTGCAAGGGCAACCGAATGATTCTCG    0.243
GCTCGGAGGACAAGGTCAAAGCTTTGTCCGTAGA    3.51
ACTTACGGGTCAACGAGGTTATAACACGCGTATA    5.81
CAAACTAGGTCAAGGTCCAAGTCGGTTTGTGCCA    1.63
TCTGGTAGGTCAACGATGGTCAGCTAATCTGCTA    2.25
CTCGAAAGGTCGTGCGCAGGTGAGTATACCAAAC    3.65
TCATATAGGTAAAAGGTGAAAGGCGGTGTGGTAA    1.69
ACTATTAGTTGACTTAGGGCTACCGATACGACGC    -0.151
CCAACTGGGCCATCAGGTCATTGATATCAACGTT    1.59

[in] Please provide the recorded PBM binding z-score for "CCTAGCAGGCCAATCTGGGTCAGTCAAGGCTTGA" , tested on PXR:RXRa (NR concentration 270 nM, RXRa partner concentration 90 nM).
[out] 0.0599

[in] Please provide the recorded PBM binding z-score for "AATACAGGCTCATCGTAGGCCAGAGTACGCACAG" , tested on PXR:RXRa (NR concentration 270 nM, RXRa partner concentration 90 nM).
[out] -0.568

[in] Please provide the recorded PBM binding z-score for "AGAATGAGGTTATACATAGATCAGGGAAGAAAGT" , tested on PXR:RXRa (NR concentration 270 nM, RXRa partner concentration 90 nM).
[out] 1.43

[in] Please provide the recorded PBM binding z-score for "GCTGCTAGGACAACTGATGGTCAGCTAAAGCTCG" , tested on PXR:RXRa (NR concentration 270 nM, RXRa partner concentration 90 nM).
[out] -1.1

[in] Please provide the recorded PBM binding z-score for "CCTACTGGGACATCAGGTCATTGATATCAACGTT" , tested on PXR:RXRa (NR concentration 270 nM, RXRa partner concentration 90 nM).
[out] 1.82

[in] Please provide the recorded PBM binding z-score for "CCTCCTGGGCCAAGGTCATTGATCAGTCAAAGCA" , tested on PXR:RXRa (NR concentration 270 nM, RXRa partner concentration 90 nM).
[out] 3.38

[in] Please provide the recorded PBM binding z-score for "CCAGAGAGGTGAAAGGTAACTCAGTCTGGTACGC" , tested on PXR:RXRa (NR concentration 270 nM, RXRa partner concentration 90 nM).
[out] 2.19

[in] Please provide the recorded PBM binding z-score for "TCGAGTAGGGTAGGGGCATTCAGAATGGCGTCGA" , tested on PXR:RXRa (NR concentration 270 nM, RXRa partner concentration 90 nM).
[out] 0.566

[in] Please provide the recorded PBM binding z-score for "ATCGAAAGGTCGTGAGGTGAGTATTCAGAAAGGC" , tested on PXR:RXRa (NR concentration 270 nM, RXRa partner concentration 90 nM).
[out] 3.37

====

system: PPARg:RXRa 30nM:10nM, anti-RXR (NR concentration 30 nM, RXRa partner concentration 10 nM); test: PBM binding z-score (relative to random genomic background probes); higher = stronger binding; sequences stand for … in GC…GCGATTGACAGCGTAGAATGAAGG
PBM binding z-score for assorted sequences
Output: the number by itself.

The following sequences have reported results that may help.
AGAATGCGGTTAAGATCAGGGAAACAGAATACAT    0.301
CGAACGAGGGTATGAGTTGATAGCAAATGCCGAT    -0.0706
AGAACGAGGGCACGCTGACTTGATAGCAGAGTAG    0.503
TCTCGGAGGACACGAAGGTCAGAGCGTTCCAGAG    2.34
CGTCCAAGGTCAATCCTAGGTCAGTGAAAGCATT    1.43

[in] // returns reported PBM binding z-score for input "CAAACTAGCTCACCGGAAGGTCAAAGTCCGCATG"
[out] 0.364

[in] // returns reported PBM binding z-score for input "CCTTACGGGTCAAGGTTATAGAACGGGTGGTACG"
[out] 1.87

====

tested on: PPARg:RXRa IVT, anti-PPARg (NR concentration 270 nM, RXRa partner concentration 90 nM); test: PBM binding z-score (relative to random genomic background probes); higher = stronger binding; sequences stand for … in GC…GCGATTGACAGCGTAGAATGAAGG
PBM binding z-score for assorted sequences
Output: the number by itself.

[in] // returns reported PBM binding z-score for input "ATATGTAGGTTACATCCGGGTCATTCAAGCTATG"
[out] 7.61

[in] // returns reported PBM binding z-score for input "CCGAGTAGGTTATGGGGCAATCAGGCAACGGTGA"
[out] 3.81

[in] // returns reported PBM binding z-score for input "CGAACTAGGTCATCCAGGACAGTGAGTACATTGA"
[out] 8.31

[in] // returns reported PBM binding z-score for input "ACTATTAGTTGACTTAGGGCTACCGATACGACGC"
[out] 0.114

[in] // returns reported PBM binding z-score for input "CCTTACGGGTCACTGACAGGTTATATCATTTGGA"
[out] 3.76

[in] // returns reported PBM binding z-score for input "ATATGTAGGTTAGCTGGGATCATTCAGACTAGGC"
[out] 5.92

[in] // returns reported PBM binding z-score for input "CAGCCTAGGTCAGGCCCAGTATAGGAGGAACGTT"
[out] 1.39

====

test system: PPARg:RXRa 90nM:30nM, anti-RXR (NR concentration 90 nM, RXRa partner concentration 30 nM); assay: PBM binding z-score (relative to random genomic background probes); higher = stronger binding; sequences stand for … in GC…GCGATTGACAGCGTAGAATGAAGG
measure.name: PBM binding z-score

The following sequences have reported results that may help.
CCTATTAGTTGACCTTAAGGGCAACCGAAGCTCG    2.42
TCTAGCAGGCCAGAGGGTGACTCAAGAGGTACGG    2.19
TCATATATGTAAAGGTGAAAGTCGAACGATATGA    3.47

Turning now to a further sequence:
[in] // returns reported PBM binding z-score for input "AGAATGAGGTTATCCGTAGATCAGGGAAGAAAGT"
[out] 1.32
